# TARGET OR TEST SYSTEM: Peroxisome proliferator-activated receptor gamma (Homo sapiens)
# Sequence (P37231 whole entry): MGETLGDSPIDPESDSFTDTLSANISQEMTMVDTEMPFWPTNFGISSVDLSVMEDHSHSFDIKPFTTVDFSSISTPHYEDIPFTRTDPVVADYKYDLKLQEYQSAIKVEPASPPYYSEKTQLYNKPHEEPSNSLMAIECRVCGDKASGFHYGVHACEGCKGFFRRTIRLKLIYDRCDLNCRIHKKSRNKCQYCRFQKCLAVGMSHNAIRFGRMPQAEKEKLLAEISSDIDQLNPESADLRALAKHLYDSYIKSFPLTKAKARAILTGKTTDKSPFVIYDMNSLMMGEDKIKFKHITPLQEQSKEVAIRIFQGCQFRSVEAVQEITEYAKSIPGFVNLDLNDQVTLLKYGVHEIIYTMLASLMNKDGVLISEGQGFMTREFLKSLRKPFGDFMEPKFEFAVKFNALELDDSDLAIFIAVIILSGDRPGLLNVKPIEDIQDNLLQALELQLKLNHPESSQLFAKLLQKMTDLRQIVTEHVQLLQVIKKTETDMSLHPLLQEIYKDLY
# ASSAY INFO: Agonist activity at human GAL4-fused PPARgamma ligand binding domain expressed in HepG2 cells after 20 hrs by luciferase reporter gene transactivation assay
# Format: cell-based
# CONDITION DESCRIPTION: read-out: EC50
Strictly below 2000 nM in EC50: t. Otherwise: f.

query: Answer whether the compound CCCCCCCN(CCc1ccc(O[C@H](C)C(=O)O)cc1)c1nc2ccccc2o1 has EC50 strictly less than 2000 nM
result: t

query: Answer whether the compound CCCCCCCN(CCc1ccc(OCC(=O)O)cc1)c1nc2ccccc2o1 has EC50 strictly less than 2000 nM
result: t

query: Answer whether the compound CCCCCCCN(CCc1ccc(O[C@H](Cc2ccccc2)C(=O)O)cc1)c1nc2ccccc2o1.NC1CCCCC1 has EC50 strictly less than 2000 nM
result: f

query: Answer whether the compound CCCCCCCN(CCc1ccc(O[C@@H](Cc2ccccc2)C(=O)O)cc1)c1nc2ccccc2o1.NC1CCCCC1 has EC50 strictly less than 2000 nM
result: t

query: Answer whether the compound CCCCCCCN(CCc1ccc(O[C@@H](C)C(=O)O)cc1)c1nc2ccccc2o1 has EC50 strictly less than 2000 nM
result: f

---

# Test system: HCT-15
# ASSAY INFO: Antitumor activity against human HCT15 cells assessed as inhibition of cell proliferation after 2 days by MTT assay
# Assay type: functional, cell-based
# CONDITION DESCRIPTION: HCT-15, 48 h
QUANTITY NAME: IC50 (µM)
API: value field is a number in µM; no unit string.

query: Return the recorded IC50 value; entry: Cc1c(C)c2c(c(C)c1O)CCC(C)(COc1ccc(CC3SC(=O)NC3=O)cc1)O2 (stereo unspecified) [TROGLITAZONE]
result: 50.9

---

# TARGET OR TEST SYSTEM: Peroxisome proliferator-activated receptor gamma (Homo sapiens, UniProt P37231)
# Sequence (P37231 whole entry): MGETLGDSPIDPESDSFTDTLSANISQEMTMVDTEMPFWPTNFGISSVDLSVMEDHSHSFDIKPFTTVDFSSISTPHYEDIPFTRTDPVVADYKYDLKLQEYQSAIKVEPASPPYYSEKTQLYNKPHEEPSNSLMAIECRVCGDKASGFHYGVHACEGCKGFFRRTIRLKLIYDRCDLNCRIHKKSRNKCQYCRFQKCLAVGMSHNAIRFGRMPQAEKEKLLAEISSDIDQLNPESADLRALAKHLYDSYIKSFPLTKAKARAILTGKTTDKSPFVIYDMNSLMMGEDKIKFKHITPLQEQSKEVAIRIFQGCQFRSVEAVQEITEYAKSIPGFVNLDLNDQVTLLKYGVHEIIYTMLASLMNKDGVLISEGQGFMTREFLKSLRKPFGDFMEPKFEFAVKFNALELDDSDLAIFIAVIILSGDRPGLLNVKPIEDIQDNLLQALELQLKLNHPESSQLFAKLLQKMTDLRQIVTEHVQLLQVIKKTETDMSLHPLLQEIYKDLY
# ASSAY INFO: Binding affinity to PPARgamma ligand binding domain by isothermal titration calorimetry
For each of the compounds below, state its Kd.
API: value field is a number in µM; no unit string.

query: Tell me Kd of CCCCCCCN(CCc1ccc(OCC(=O)O)cc1)c1nc2ccccc2o1 when tested on Peroxisome proliferator-activated receptor gamma (Homo sapiens, UniProt P37231).
result: 7.7

query: Tell me Kd of CCCCCCCN(CCc1ccc(O[C@H](C)C(=O)O)cc1)c1nc2ccccc2o1 when tested on Peroxisome proliferator-activated receptor gamma (Homo sapiens, UniProt P37231).
result: 1.5

query: Tell me Kd of CCCCCCCN(CCc1ccc(O[C@@H](C)C(=O)O)cc1)c1nc2ccccc2o1 when tested on Peroxisome proliferator-activated receptor gamma (Homo sapiens, UniProt P37231).
result: 3.3
